- study.target: T1, human MSLN-FL-his protein (human, UniProt Q13421 296-580)
- T1 construct: Made in HEK293E cells, purified on nickel column; it is put last here; also called human MSLN full-length protein; hMSLN-FL-his; not shown: His tag
- T1 sequence (Q13421 other isoform, or with tags, fused parts or gaps): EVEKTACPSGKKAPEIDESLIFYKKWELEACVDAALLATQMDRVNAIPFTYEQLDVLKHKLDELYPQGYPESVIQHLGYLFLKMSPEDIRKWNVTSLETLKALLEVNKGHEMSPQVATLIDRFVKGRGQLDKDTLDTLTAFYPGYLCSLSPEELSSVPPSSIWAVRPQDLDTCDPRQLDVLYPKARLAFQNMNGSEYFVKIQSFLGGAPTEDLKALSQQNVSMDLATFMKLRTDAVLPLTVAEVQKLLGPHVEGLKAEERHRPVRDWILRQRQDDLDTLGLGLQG
- experiment.notes: ELISA on coated antigen, antibody 0.001 nM
# Lookup of reported OD450 keyed by entry

- binder: "S009-F8-33.12 (antibody, human IgG1, kappa, V domains shown, Human-murine chimeric antibody, human IgG1 heavy and kappa light constant regions) VH: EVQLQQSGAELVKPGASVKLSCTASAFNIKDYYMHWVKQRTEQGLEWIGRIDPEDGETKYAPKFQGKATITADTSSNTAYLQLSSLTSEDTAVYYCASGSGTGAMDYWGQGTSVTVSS VL: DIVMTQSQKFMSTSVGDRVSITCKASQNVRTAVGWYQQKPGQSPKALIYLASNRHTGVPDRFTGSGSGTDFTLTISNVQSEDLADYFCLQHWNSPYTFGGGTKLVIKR"
  unit.label: "OD"
  OD450: 0.11
- binder: "S009-F8-32.3 (antibody, human IgG1, kappa, V domains shown, Human-murine chimeric antibody, human IgG1 heavy and kappa light constant regions) VH: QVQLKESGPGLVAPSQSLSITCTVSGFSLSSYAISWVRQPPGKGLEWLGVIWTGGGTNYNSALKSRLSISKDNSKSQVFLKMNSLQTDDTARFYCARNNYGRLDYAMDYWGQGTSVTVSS VL: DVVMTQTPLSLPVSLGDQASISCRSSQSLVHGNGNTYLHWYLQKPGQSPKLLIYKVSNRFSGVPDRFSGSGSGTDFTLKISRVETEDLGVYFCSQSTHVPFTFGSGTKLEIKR"
  unit.label: "OD"
  OD450: 0.11
- binder: "S009-F8-15.19 (antibody, human IgG1, kappa, V domains shown, Human-murine chimeric antibody, human IgG1 heavy and kappa light constant regions) VH: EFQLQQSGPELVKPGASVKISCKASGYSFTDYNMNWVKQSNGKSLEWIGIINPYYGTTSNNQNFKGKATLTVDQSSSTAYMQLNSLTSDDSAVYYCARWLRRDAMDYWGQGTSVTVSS VL: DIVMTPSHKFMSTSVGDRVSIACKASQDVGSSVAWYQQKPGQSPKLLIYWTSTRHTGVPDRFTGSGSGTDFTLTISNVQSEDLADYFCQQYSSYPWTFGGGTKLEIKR"
  unit.label: "OD"
  OD450: 0.08
- binder: "S009-F8-13.8 (antibody, human IgG1, kappa, V domains shown, Human-murine chimeric antibody, human IgG1 heavy and kappa light constant regions) VH: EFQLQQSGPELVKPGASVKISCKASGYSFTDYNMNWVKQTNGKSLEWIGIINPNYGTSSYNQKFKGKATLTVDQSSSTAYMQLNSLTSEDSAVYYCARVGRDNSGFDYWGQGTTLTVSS VL: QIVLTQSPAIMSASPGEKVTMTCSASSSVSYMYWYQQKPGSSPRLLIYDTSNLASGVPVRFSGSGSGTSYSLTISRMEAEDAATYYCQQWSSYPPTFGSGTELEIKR"
  unit.label: "OD"
  OD450: 0.07

Origin of the recorded values: patent US20250250357A1
